Where these numbers come from: ChEMBL document CHEMBL6083236

The reader will find reported selectivity ratio values listed item by item below.
assay: Selectivity index, ratio of CC50 for cytotoxicity against human MT4 cells to EC50 for antiviral activity against HIV1 RES056 mutant infected in human MT4 cells; conditions: MT4 cells

Before answering, review these 5 worked examples.
Cc1cc(/C=C/C#N)cc(C)c1Oc1ccnc(Nc2ccc(N3CCN(S(C)(=O)=O)C3=O)c(C#N)c2)n1 ... 192
Cc1cc(/C=C/C#N)cc(C)c1Oc1ccnc(Nc2ccc(N3CCOCC3=O)c(C#N)c2)n1 ... 191
CSC1CN(c2ccc(Nc3nccc(Oc4c(C)cc(/C=C/C#N)cc4C)n3)cc2C#N)C1 ... > 99
Cc1cc(/C=C/C#N)cc(C)c1Oc1ccnc(Nc2ccc(N3CCN(S(C)(=O)=O)CC3=O)c(C#N)c2)n1 ... 17
Cc1cc(/C=C/C#N)cc(C)c1Oc1ccnc(Nc2ccc(N3CCCCC3)c(C#N)c2)n1 ... > 62

-- ask State its selectivity ratio: `Cc1cc(/C=C/C#N)cc(C)c1Oc1ccnc(Nc2ccc(N3CCCC3)c(C#N)c2)n1`
-- reply 51

-- ask State its selectivity ratio: `Cc1cc(/C=C/C#N)cc(C)c1Oc1ccnc(Nc2ccc(N3CCSCC3)c(C#N)c2)n1`
-- reply > 596

-- ask State its selectivity ratio: `Cc1cc(/C=C/C#N)cc(C)c1Oc1ccnc(Nc2ccc(N3CCS(=O)(=O)CC3=O)c(C#N)c2)n1`
-- reply 37

-- ask State its selectivity ratio: `Cc1cc(/C=C/C#N)cc(C)c1Oc1ccnc(Nc2ccc(N3CCC(F)CC3)c(C#N)c2)n1`
-- reply > 181
